- TARGET_OF_ASSAY: T1, human IL-23R endogenously expressed on DB cells (human, UniProt Q5VWK5 24-629)
- T1 sequence (looked up): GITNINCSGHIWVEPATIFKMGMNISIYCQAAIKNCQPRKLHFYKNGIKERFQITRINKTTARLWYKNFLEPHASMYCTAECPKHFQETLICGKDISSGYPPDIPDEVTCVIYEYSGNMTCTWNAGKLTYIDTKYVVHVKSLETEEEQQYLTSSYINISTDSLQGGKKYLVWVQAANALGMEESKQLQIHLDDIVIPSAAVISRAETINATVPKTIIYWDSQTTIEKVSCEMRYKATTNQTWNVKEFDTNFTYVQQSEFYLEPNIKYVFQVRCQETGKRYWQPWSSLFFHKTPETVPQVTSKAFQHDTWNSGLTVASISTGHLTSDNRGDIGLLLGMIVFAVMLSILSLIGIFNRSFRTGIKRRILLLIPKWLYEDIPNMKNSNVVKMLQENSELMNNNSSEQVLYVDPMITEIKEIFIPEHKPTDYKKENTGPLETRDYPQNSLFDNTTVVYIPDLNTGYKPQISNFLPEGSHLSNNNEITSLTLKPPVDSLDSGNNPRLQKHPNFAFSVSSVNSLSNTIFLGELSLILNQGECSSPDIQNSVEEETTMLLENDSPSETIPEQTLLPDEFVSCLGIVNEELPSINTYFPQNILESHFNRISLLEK
- TEST_DESCRIPTION: cell-based or functional assay
*1 amine or outer side, *2 acyl side, *3 side chain or, on linkers, in order; H or OH if unused. Bridges are numbered along the chain shown (N, C = ends). Primed or numbered codes have the meaning given here. [ ]: non-standard residue; d: D form. 4‑Aminomethyl‑phenylacetyl = 4-aminomethyl-phenylacetyl unit, its amine closes the lactam, O=C(Cc1ccc(CN[*:1])cc1)[*:2]; 1,3‑dibromopropan‑2‑one″ = linker forming 1,3-dithio-propan-2-one bridge -SCH2C(=O)CH2S- between two Cys; 2Nal = N[C@@H](Cc1ccc2ccccc2c1)C(=O)O; AEF = NCCOc1ccc(C[C@H](N)C(=O)O)cc1; αMeL = CC(C)C[C@](C)(N)C(=O)O
Catalogue of hIL-23 (pSTAT3) antagonist % inhibition values
RESULT_TYPE: hIL-23 (pSTAT3) antagonist % inhibition (%)

BINDER	RESULT_TYPE	U	MEASURED
[4‑Aminomethyl‑phenylacetyl]SCWQC[AEF][2Nal][αMeL]E[dR]-NH2 (lactam N-10; linker 3-6 via 1,3‑dibromopropan‑2‑one″) [Ref 80]	hIL-23 (pSTAT3) antagonist % inhibition	%	97
[4‑Aminomethyl‑phenylacetyl]SCWQC[AEF][2Nal][αMeL]ER-NH2 (lactam N-10; linker 3-6 via 1,3‑dibromopropan‑2‑one″) [Ref 52]	hIL-23 (pSTAT3) antagonist % inhibition	%	103
XQTWQCXWXENG ([Ac]-[Abu](16i)QTWQC(16i)[Y(2-aminoethoxy)]W[2-Me-Lys]ENG-[NH2]; (16i) [2,7] thioether bridge (Abu and Cys form a cystathionine)) [Compound C]	hIL-23 (pSTAT3) antagonist % inhibition	%	99
